Source of measurements: ChEMBL document CHEMBL3779850

Target: Peroxisome proliferator-activated receptor alpha (Homo sapiens) (UniProt Q07869)
Sequence (whole entry): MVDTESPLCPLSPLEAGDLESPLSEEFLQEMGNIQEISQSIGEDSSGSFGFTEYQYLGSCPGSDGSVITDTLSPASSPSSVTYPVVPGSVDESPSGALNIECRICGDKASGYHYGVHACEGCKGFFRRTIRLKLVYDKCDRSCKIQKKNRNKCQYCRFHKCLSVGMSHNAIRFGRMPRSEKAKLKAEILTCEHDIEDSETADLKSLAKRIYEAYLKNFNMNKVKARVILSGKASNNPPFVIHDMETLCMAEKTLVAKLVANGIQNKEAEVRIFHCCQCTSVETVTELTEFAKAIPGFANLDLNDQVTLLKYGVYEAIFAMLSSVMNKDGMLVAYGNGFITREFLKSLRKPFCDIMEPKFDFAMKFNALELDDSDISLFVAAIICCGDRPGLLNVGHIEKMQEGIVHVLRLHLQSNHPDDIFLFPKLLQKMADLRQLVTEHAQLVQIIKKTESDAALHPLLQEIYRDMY
Experiment: Transactivation of PPARalpha (unknown origin) expressed in HEK293A cells at 150 uM after 16 to 18 hrs by luciferase reporter assay relative to control
Assay type: cell-based
Conditions: HEK293-A
fold change (FC) values, listed per item
Please reply with the value in numeric form only.

Illustrative cases are given below, each with its answer.
CCCC(Sc1nc2cc(Cl)ccc2s1)C(=O)NS(=O)(=O)c1ccc(NC(=O)c2ccccc2)cc1 (configuration not stated) | 0.05
CC(C)(Oc1ccc(C(=O)c2ccc(Cl)cc2)cc1)C(=O)NS(=O)(=O)c1ccccc1 | 0.08
O=C(NS(=O)(=O)c1ccc(Cl)cc1)C(Sc1nc2cc(Cl)ccc2s1)c1ccccc1 (configuration not stated) | 0.9
CCCC(Sc1nc2cc(Cl)ccc2s1)C(=O)NS(=O)(=O)c1ccc(Cl)cc1 (configuration not stated) | 0.04

So for CCCC(Sc1nc2cc(Cl)ccc2s1)C(=O)NS(=O)(=O)c1ccc([N+](=O)[O-])cc1 (configuration not stated) , the logged fold change (FC) turned out to be 0.03

So for O=C(NS(=O)(=O)c1ccc([N+](=O)[O-])cc1)C(Sc1nc2cc(Cl)ccc2s1)c1ccccc1 (configuration not stated) , the logged fold change (FC) turned out to be 0.22
